System: Staphylococcus aureus ATCC 6538
Experiment: Antibiotic disc assay (zones of inhibition), S. aureus
Type: cell-based
Settings: antibiotic disc with 0.5 mM apritone (A) in agar overlay
Listed next: entries and their corresponding Diameters of zones of inhibition.
Parameter Measured: Diameters of zones of inhibition (millimeters)

- CN(C)[C@@H]1C(O)=C(C(N)=O)C(=O)[C@@]2(O)C(O)=C3C(=O)c4c(O)cccc4[C@@](C)(O)[C@H]3C[C@@H]12: 25.5
- CC[C@H]1OC(=O)[C@H](C)[C@@H](O[C@H]2C[C@@](C)(OC)[C@@H](O)[C@H](C)O2)[C@H](C)[C@@H](O[C@@H]2O[C@H](C)C[C@H](N(C)C)[C@H]2O)[C@](C)(O)C[C@@H](C)C(=O)[C@H](C)[C@@H](O)[C@]1(C)O: 26
- CCC[C@@H]1C[C@@H](C(=O)N[C@@H]([C@H]2O[C@H](SC)[C@H](O)[C@@H](O)[C@H]2O)[C@H](C)Cl)N(C)C1: 22
- CN[C@H](CC(C)C)C(=O)N[C@H]1C(=O)N[C@@H](CC(N)=O)C(=O)N[C@H]2C(=O)N[C@H]3C(=O)N[C@H](C(=O)N[C@H](C(=O)O)c4cc(O)cc(O)c4-c4cc3ccc4O)[C@H](O)c3ccc(c(Cl)c3)Oc3cc2cc(c3O[C@@H]2O[C@H](CO)[C@@H](O)[C@H](O)[C@H]2O[C@H]2C[C@](C)(N)[C@H](O)[C@H](C)O2)Oc2ccc(cc2Cl)[C@H]1O: 19
